Where these numbers come from: paper PMC6407594

molecular target: murine SMOX (Mus musculus); experiment: Inhibition of SMOX activity, spermine as substrate; assay type: biochemical
Sequence (Q99K82 whole entry): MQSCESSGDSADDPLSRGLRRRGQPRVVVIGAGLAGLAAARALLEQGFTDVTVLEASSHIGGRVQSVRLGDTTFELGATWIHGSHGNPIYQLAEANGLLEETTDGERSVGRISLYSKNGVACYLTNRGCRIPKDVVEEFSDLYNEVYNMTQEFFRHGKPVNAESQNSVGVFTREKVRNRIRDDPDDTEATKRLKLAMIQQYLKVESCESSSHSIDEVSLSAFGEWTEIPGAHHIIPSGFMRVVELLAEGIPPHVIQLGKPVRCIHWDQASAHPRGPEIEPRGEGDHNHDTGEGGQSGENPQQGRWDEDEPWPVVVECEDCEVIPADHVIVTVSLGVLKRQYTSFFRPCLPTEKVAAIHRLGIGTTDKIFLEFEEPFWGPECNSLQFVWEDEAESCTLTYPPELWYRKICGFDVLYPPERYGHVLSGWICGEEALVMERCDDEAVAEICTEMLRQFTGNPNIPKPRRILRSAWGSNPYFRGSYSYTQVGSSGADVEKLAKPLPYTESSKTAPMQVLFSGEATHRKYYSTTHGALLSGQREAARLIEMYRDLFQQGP
assay metric: Ki (µM)
Numeric only. Scale: µM

compound: COc1ccccc1CNCCCCCCNCCCCCCCCNCCCCCCNCc1ccccc1OC [Compound 10, Methoctramine]
assay metric: Ki
measurement: 1.2

Alright, here's another compound for you.
Quick note, Ki for [H]/N=C(\N/C(=N/[H])NCCCCCCNC(=N)NC(=N)Nc1ccc(Cl)cc1)Nc1ccc(Cl)cc1 [Chlorhexidine, chlorhexidine, reference compound] landed at 3.8

----------
molecular target: UniProt Q99K82; assay: Inhibition of SMOX activity, spermine as substrate; assay type: biochemical; conditions: 50 μM compound, relative to control
Below: a set of entries, each annotated with reported SMOX Kmapp/Km0.
No unit in the answer, please; the number alone is enough.

Example entries and their recorded answers appear below.
compound: COc1ccccc1CNCCCCCCNCCCCCCCCNCCCCCCNCc1ccccc1OC [Compound 10, Methoctramine]
SMOX Kmapp/Km0: 18
//
compound: NCCCCCCCCCCCCN [DIADO, 1,12-diaminododecane, reference compound]
SMOX Kmapp/Km0: 1.2
//
compound: COc1ccccc1CN(C)CCCCCC(=O)N(C)CCCCCCCCN(C)C(=O)CCCCCN(C)Cc1ccccc1OC [Compound 14, Caproctamine]
SMOX Kmapp/Km0: 1.21

Item: c1ccc(CNCCCCCCCCCCCCNCc2ccccc2)cc1 [Compound 9, N1,N^12-dibenzyldodecanediamine] | SMOX Kmapp/Km0: 2.3
